Numbers sourced from patent US4935509A.

# Tested on: WI-38 fibroblast
# test summary: MTT cell count (ID50), non-transformed human fibroblast cell line WI-38
# Format: cell-based
# Parameters: unit not given here
# measurement conditions: 6 days incubation
For each record, write down the corresponding ID50 WI-38 fibroblast.

Data point: "CC[C@]12C=CCN3CC[C@@]4(c5cc([C@@]6(C(=O)OC)C[C@H]7CN(CCc8c6[nH]c6ccccc86)C[C@H]6CCCC[C@H]67)c(OC)cc5N(C)[C@H]4[C@@](O)(C(=O)OC)[C@@H]1OC(C)=O)[C@@H]32" ; ID50 WI-38 fibroblast = 5 × 10^-7

Record "CC[C@]12C=CCN3CC[C@@]4(c5cc([C@@]6(C(=O)OC)C[C@H]7CN(CCc8c6[nH]c6ccccc86)Cc6ccccc67)c(OC)cc5N(C=O)[C@H]4[C@@](O)(C(=O)OC)[C@@H]1OC(C)=O)[C@@H]32" , field ID50 WI-38 fibroblast: 1 × 10^-7

Value of ID50 WI-38 fibroblast reported for the compound "CC[C@]12C=CCN3CC[C@@]4(c5cc([C@@]6(C(=O)OC)C[C@H]7CN(CCc8c6[nH]c6ccccc86)Cc6ccccc67)c(OC)cc5N(C)[C@H]4[C@@](O)(C(=O)OC)[C@@H]1OC(C)=O)[C@@H]32" is 4 × 10^-7

CC[C@]1(O)C[C@H]2CN(CCc3c([nH]c4ccccc34)[C@@](C(=O)OC)(c3cc4c(cc3OC)N(C=O)[C@H]3[C@@](O)(C(=O)OC)[C@H](OC(C)=O)[C@]5(CC)C=CCN6CC[C@]43[C@@H]65)C2)C1 [Vincristine, reference compound] yielded ID50 WI-38 fibroblast of 7 × 10^-8

The reported value for "CC[C@]12C=CCN3CC[C@@]4(c5cc([C@@]6(C(=O)OC)C[C@H]7CN(CCc8c6[nH]c6ccccc86)C[C@H]6CCCC[C@H]67)c(OC)cc5N(C=O)[C@H]4[C@@](O)(C(=O)OC)[C@@H]1OC(C)=O)[C@@H]32" in terms of ID50 WI-38 fibroblast is 4 × 10^-7

Reported ID50 WI-38 fibroblast for CC[C@]1(O)C[C@@H]2CN(CCc3c([nH]c4ccccc34)[C@@](C(=O)OC)(c3cc4c(cc3OC)N(C)[C@H]3[C@@](O)(C(=O)OC)[C@H](OC(C)=O)[C@]5(CC)C=CCN6CC[C@]43[C@@H]65)C2)C1 [Vinblastine, reference compound] was 5 × 10^-8

Kindly note the recorded ID50 WI-38 fibroblast for "CC[C@]12C=CCN3CC[C@@]4(c5cc([C@@]6(C(=O)OC)C[C@H]7CN(CCc8c6[nH]c6ccccc86)C[C@@H]6CCCC[C@H]76)c(OC)cc5N(C)[C@H]4[C@@](O)(C(=O)OC)[C@@H]1OC(C)=O)[C@@H]32" , which is 3 × 10^-7

Field ID50 WI-38 fibroblast (entry "CC[C@]12C=CCN3CC[C@@]4(c5cc([C@@]6(C(=O)OC)C[C@H]7CN(CCc8c6[nH]c6ccccc86)C[C@@H]6CCCC[C@H]76)c(OC)cc5N(C=O)[C@H]4[C@@](O)(C(=O)OC)[C@@H]1OC(C)=O)[C@@H]32" ) reads 1 × 10^-7

###

# test summary: In vivo effect against P388 leukemia in mice (TD50, ED50, T.I.)
# measurement conditions: mouse, in vivo, ip
# Description: The in vivo effect of the novel compounds of this invention against P388 leukemia as compared to vinblastine and vincristine, were compared by the following procedure. P388 murine leukemia cells were obtained from Southern Research Institute, Birmingham, Ala., and were maintained by serial i.p. passage in C57BL/6 mice. […] The therapeutic index (T.I.) for each compound was calculated by the formula: [formula]
Provide the recorded LD50 for the entries that follow.
Give just the numeric value; mg/kg need not be written.

LD50 recorded for this molecule, CC[C@]12C=CCN3CC[C@@]4(c5cc([C@@]6(C(=O)OC)C[C@H]7CN(CCc8c6[nH]c6ccccc86)Cc6ccccc67)c(OC)cc5N(C)[C@H]4[C@@](O)(C(=O)OC)[C@@H]1OC(C)=O)[C@@H]32 [A] , is 0.28

Please fill in: LD50 reported for CC[C@]12C=CCN3CC[C@@]4(c5cc([C@@]6(C(=O)OC)C[C@H]7CN(CCc8c6[nH]c6ccccc86)C[C@@H]6CCCC[C@H]76)c(OC)cc5N(C=O)[C@H]4[C@@](O)(C(=O)OC)[C@@H]1OC(C)=O)[C@@H]32 [Compound F] = 0.045

Per the record, CC[C@]12C=CCN3CC[C@@]4(c5cc([C@@]6(C(=O)OC)C[C@H]7CN(CCc8c6[nH]c6ccccc86)Cc6ccccc67)c(OC)cc5N(C=O)[C@H]4[C@@](O)(C(=O)OC)[C@@H]1OC(C)=O)[C@@H]32 [Compound B] has LD50 of 0.092

Recorded result, CC[C@]1(O)C[C@@H]2CN(CCc3c([nH]c4ccccc34)[C@@](C(=O)OC)(c3cc4c(cc3OC)N(C)[C@H]3[C@@](O)(C(=O)OC)[C@H](OC(C)=O)[C@]5(CC)C=CCN6CC[C@]43[C@@H]65)C2)C1 [Vinblastine, reference compound] , LD50: 0.79

get_value(item= CC[C@]12C=CCN3CC[C@@]4(c5cc([C@@]6(C(=O)OC)C[C@H]7CN(CCc8c6[nH]c6ccccc86)C[C@H]6CCCC[C@H]67)c(OC)cc5N(C)[C@H]4[C@@](O)(C(=O)OC)[C@@H]1OC(C)=O)[C@@H]32 [C] , readout=LD50) returns 0.1

Lab note: CC[C@]1(O)C[C@H]2CN(CCc3c([nH]c4ccccc34)[C@@](C(=O)OC)(c3cc4c(cc3OC)N(C=O)[C@H]3[C@@](O)(C(=O)OC)[C@H](OC(C)=O)[C@]5(CC)C=CCN6CC[C@]43[C@@H]65)C2)C1 [Vincristine, reference compound] gave LD50 of 1

Short answer for CC[C@]12C=CCN3CC[C@@]4(c5cc([C@@]6(C(=O)OC)C[C@H]7CN(CCc8c6[nH]c6ccccc86)C[C@H]6CCCC[C@H]67)c(OC)cc5N(C=O)[C@H]4[C@@](O)(C(=O)OC)[C@@H]1OC(C)=O)[C@@H]32 [D] : LD50 was 0.045

The value of LD50 measured for the molecule CC[C@]12C=CCN3CC[C@@]4(c5cc([C@@]6(C(=O)OC)C[C@H]7CN(CCc8c6[nH]c6ccccc86)C[C@@H]6CCCC[C@H]76)c(OC)cc5N(C)[C@H]4[C@@](O)(C(=O)OC)[C@@H]1OC(C)=O)[C@@H]32 [E] turned out to be 0.18

###

Can you tell me pIC50 for the items I'm about to list?
# Tested on: OM-1
# test summary: MTT cell count (ID50), human colon cancer cell line OM-1
# Type: cell-based
# measurement conditions: 144 h, read-out: ID50 OM-1
Would you please state pIC50, meaning minus log10 of the concentration in mol/L, as a bare number?

CC[C@]12C=CCN3CC[C@@]4(c5cc([C@@]6(C(=O)OC)C[C@H]7CN(CCc8c6[nH]c6ccccc86)C[C@@H]6CCCC[C@H]76)c(OC)cc5N(C)[C@H]4[C@@](O)(C(=O)OC)[C@@H]1OC(C)=O)[C@@H]32 [E] yielded pIC50 of 6.40

Per the record, CC[C@]12C=CCN3CC[C@@]4(c5cc([C@@]6(C(=O)OC)C[C@H]7CN(CCc8c6[nH]c6ccccc86)C[C@H]6CCCC[C@H]67)c(OC)cc5N(C=O)[C@H]4[C@@](O)(C(=O)OC)[C@@H]1OC(C)=O)[C@@H]32 [D] has pIC50 of 7.22

Field pIC50 (entry CC[C@]12C=CCN3CC[C@@]4(c5cc([C@@]6(C(=O)OC)C[C@H]7CN(CCc8c6[nH]c6ccccc86)C[C@@H]6CCCC[C@H]76)c(OC)cc5N(C=O)[C@H]4[C@@](O)(C(=O)OC)[C@@H]1OC(C)=O)[C@@H]32 [Compound F] ) reads 7.70

pIC50 reading for CC[C@]12C=CCN3CC[C@@]4(c5cc([C@@]6(C(=O)OC)C[C@H]7CN(CCc8c6[nH]c6ccccc86)C[C@H]6CCCC[C@H]67)c(OC)cc5N(C)[C@H]4[C@@](O)(C(=O)OC)[C@@H]1OC(C)=O)[C@@H]32 [C] : 6.40

Lab book: pIC50 of CC[C@]12C=CCN3CC[C@@]4(c5cc([C@@]6(C(=O)OC)C[C@H]7CN(CCc8c6[nH]c6ccccc86)Cc6ccccc67)c(OC)cc5N(C=O)[C@H]4[C@@](O)(C(=O)OC)[C@@H]1OC(C)=O)[C@@H]32 [Compound B] noted as 7.22

Item: CC[C@]12C=CCN3CC[C@@]4(c5cc([C@@]6(C(=O)OC)C[C@H]7CN(CCc8c6[nH]c6ccccc86)Cc6ccccc67)c(OC)cc5N(C)[C@H]4[C@@](O)(C(=O)OC)[C@@H]1OC(C)=O)[C@@H]32 [A] | pIC50: 6.40
